molecular target: Alpha-2C adrenergic receptor (Homo sapiens); test: Intrinsic activity at human adrenergic Alpha-2C receptor expressed in CHO cells assessed as forskolin-induced cAMP accumulation relative to (-)- noradrenaline; format: functional, cell-based
# maps each entry to its Intrinsic activity

{"columns": ["COMPOUND", "Intrinsic activity"],
 "data": [
  ["C[C@H](Oc1ccccc1-c1ccccc1)C1=NCCN1", 0.9],
  ["C[C@H](Oc1ccccc1-c1cccc([N+](=O)[O-])c1)C1=NCCN1", 0.45],
  ["CC(Oc1ccccc1-c1cccc(F)c1)C1=NCCN1 (racemic)", 1.15],
  ["CC(Oc1ccccc1-c1cccnc1)C1=NCCN1 (racemic)", 1],
  ["CC(Oc1ccccc1-c1ccccc1)C1=NCCN1 (racemic)", 0.8],
  ["C[C@@H](Oc1ccccc1-c1cccc([N+](=O)[O-])c1)C1=NCCN1", 0.8],
  ["CC(Oc1ccccc1-c1cccc(O)c1)C1=NCCN1 (racemic)", 1.15],
  ["CC(Oc1ccccc1-c1cccc([N+](=O)[O-])c1)C1=NCCN1 (racemic)", 0.6],
  ["C[C@@H](Oc1ccccc1-c1ccccc1)C1=NCCN1", 0.7]
]}

====

Below is a list of entries, each paired with its recorded pKi value.
molecular target: Alpha-2C adrenergic receptor (Homo sapiens, UniProt P18825); assay: biochemical
Description: Displacement of [3H]RX 821002 from human adrenergic Alpha-2C receptor expressed in CHO cells
pKi: −log10 of the molar value.

{"columns": ["SMILES", "TESTED_TARGET", "pKi"],
 "data": [
  ["C[C@@H](Oc1ccccc1-c1cccc([N+](=O)[O-])c1)C1=NCCN1", "Alpha-2C adrenergic receptor (Homo sapiens, UniProt P18825)", 6.59],
  ["C[C@H](Oc1ccccc1-c1cccc([N+](=O)[O-])c1)C1=NCCN1", "Alpha-2C adrenergic receptor (Homo sapiens, UniProt P18825)", 6.27],
  ["C[C@@H](Oc1ccccc1-c1ccccc1)C1=NCCN1", "Alpha-2C adrenergic receptor (Homo sapiens, UniProt P18825)", 6.01],
  ["C[C@H](Oc1ccccc1-c1ccccc1)C1=NCCN1", "Alpha-2C adrenergic receptor (Homo sapiens, UniProt P18825)", 6.52]
]}

====

Molecular target: Alpha-2C adrenergic receptor (Homo sapiens, UniProt P18825)
Sequence (P18825 whole entry): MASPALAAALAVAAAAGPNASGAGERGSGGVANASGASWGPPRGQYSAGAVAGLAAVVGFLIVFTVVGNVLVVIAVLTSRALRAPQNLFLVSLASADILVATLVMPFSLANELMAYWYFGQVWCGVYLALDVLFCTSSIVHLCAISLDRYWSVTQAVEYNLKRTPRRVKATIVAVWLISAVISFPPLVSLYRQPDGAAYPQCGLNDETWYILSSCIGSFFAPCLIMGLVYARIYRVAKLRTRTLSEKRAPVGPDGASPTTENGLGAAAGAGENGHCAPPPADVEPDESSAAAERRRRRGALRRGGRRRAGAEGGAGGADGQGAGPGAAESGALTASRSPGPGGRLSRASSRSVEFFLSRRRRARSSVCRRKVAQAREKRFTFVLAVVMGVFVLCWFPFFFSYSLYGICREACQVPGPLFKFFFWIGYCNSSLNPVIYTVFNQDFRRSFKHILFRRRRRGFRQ
Assay: Displacement of [3H]RX 821002 from human adrenergic alpha-2c receptor expressed in CHO cells in presence of GppNHp/Na
Format: cell-based
pKi: −log10 of the molar value.
Below, each entry is listed with its recorded pKi.

{"columns": ["COMPOUND", "pKi"],
 "data": [
  ["C[C@@H](Oc1ccccc1-c1cccc([N+](=O)[O-])c1)C1=NCCN1", 6.44],
  ["Cc1cccc(C(C)c2c[nH]cn2)c1C (single isomer, unassigned)", 7.51]
]}
